target: Cytochrome P450 3A4 (Homo sapiens, UniProt P08684)
Sequence (P08684 whole entry): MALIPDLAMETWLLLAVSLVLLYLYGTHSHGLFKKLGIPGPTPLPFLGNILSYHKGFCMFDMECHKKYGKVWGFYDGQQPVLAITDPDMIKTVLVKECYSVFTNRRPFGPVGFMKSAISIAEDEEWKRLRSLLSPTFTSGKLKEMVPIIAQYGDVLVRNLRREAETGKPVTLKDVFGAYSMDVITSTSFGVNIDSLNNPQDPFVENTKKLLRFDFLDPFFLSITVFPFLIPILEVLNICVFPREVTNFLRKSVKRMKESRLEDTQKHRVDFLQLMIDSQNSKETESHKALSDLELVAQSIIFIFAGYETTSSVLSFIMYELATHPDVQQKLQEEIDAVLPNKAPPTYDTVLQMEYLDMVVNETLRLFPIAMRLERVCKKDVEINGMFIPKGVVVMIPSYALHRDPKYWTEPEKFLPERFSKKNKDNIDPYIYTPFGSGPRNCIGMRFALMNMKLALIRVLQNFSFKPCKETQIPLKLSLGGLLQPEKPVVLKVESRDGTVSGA
MEASUREMENT NAME: IC50 (µM)

>  <COMPOUND STRUCTURE>
CCS(=O)(=O)c1ccc2nc(-c3cccc(-c4ccccc4)c3C)[nH]c2c1

>  <ENDPOINT VALUE>
5.2

$$$$

1 = CCCS(=O)(=O)c1ccc2[nH]c(-c3cccc(-c4ccccc4)c3)nc2c1
2 = CCS(=O)(=O)c1ccc2[nH]c(-c3cccc(-c4ccccc4)c3Cl)nc2c1
3 = CCCS(=O)(=O)c1ccc2[nH]c(-c3ccccc3-c3ccccc3)nc2c1
Please produce an ascending ranking of these molecules based on IC50. // respond by listing labels in the order requested
2, 1, 3
